# test_description: Octanol/water partition coefficient (Log P)
# Format: physicochemical
# conditions: n-octanol / PBS 0.1× buffer; partition coefficient octanol/PBS buffer 0.1× pH 7.4, triplicate; read-out: Log P (experimental)
logP: recorded values
# respond with the number and nothing more

Known results for molecules:
Cc1ccc(-c2ccc3cc(C)ccc3n2)cc1 [THQ 4S, 2-(4methylphenyl), 6-(methyl)quinoline]
2.66
Cc1cccc(-c2ccc3cc(C)ccc3n2)c1 [THQ 12S, 2-(5-methylphenyl), 6-(methyl)quinoline]
2.58
Cc1ccc(-c2ccc3cccc(Br)c3n2)cc1 [THQ 9S, 2-(4-methylphenyl), 8-(bromo)quinoline]
-0.214

Request: Which logP value is on record for Cc1ccc2nc(-c3ccc(N)cc3)ccc2c1 [THQ 55, 2-(4-aminophenyl), 6-(methyl)quinoline] ?
Result: 1.97
